- Procedure Summary: in vivo pharmacokinetics in CD1 male mice
- Particulars: mouse, plasma, 1 mg/kg IV
Below, each of the molecules is paired with its reported Cmax value.
The reply should contain only the number, in ng/mL.

What value of Cmax has been reported for the following molecule? C[C@]12CCC3C(CNC4=CC(=O)CC[C@@]43C)C1CCC2C(=O)NC(c1ccc(F)cc1)c1ccc(F)cc1 (some centres unmarked) [Compound 5]
838

Could you share which Cmax value was measured for CC(C)(C)c1ccc(C(C)(C)C)c(NC(=O)C2CCC3C4CNC5=CC(=O)CC[C@]5(C)C4CC[C@]23C)c1 (some centres unmarked) [Compound 1] ?
803

###

- Procedure Summary: stability in human liver microsomes
- Type: in vitro ADME
- Particulars: both sexes, human liver microsomes, pH 7.4, as stated in text, read-out: half-life in human liver microsomes
Measured Attribute: half-life at 1 µM

Which measured half-life at 1 µM value corresponds to C[C@]12CCC3C(CNC4=CC(=O)CC[C@@]43C)C1CCC2C(=O)NC(c1ccc(F)cc1)c1ccc(F)cc1 (stereo partly shown) ?
> 6 h

Attribution: paper PMC12210912
